Test system: glycogen synthase kinase-3 (GSK3A per assay name; protocol says GSK3B)
Method: compounds binding glycogen synthase kinase-3 – biochemical, small-molecule microarray, 635 nm fluorescence, GSK3A, primary screen (AID 1103); also: the record names both GSK3A and GSK3B
Measurement Parameters: fluorescence 635 nm, higher = more signal

Molecule | System Under Test | composite z-score
COCCOC(=O)N1C(=O)[C@@]2(c3cc(C#CCCO)ccc31)[C@H](c1ccccc1OCCO)N1[C@H](c3ccccc3)[C@H](c3ccccc3)OC(=O)[C@H]1[C@@H]2C(N)=O | glycogen synthase kinase-3 (GSK3A per assay name; protocol says GSK3B) | 1.21
O=C1N(Cc2ccccc2)c2ccccc2C[C@@]12COC(c1ccc(OCCCO)cc1)=N2 | glycogen synthase kinase-3 (GSK3A per assay name; protocol says GSK3B) | 1.31
O=C1c2ccccc2[C@@]2(Cc3ccccc3N(Cc3ccccc3)C2=O)[C@H](c2ccc(CO)cc2)N1Cc1ccccc1Cl | glycogen synthase kinase-3 (GSK3A per assay name; protocol says GSK3B) | -1.35
O=C1C2C=CC(C(O)c3cccs3)N(Nc3ccc([N+](=O)[O-])cc3)C2C(=O)N1c1ccccc1 (configuration not stated) | glycogen synthase kinase-3 (GSK3A per assay name; protocol says GSK3B) | 0.684
O=C(NCCN1CCOCC1)[C@@H]1c2ccccc2C(=O)N(Cc2ccccc2C(F)(F)F)[C@H]1c1ccc(CO)cc1 | glycogen synthase kinase-3 (GSK3A per assay name; protocol says GSK3B) | 0.0726
C=CCN1Cc2ccccc2[C@H]2OC(c3ccc(OCCCO)cc3)=N[C@@]2(CCS(=O)(=O)c2ccccc2)C1=O | glycogen synthase kinase-3 (GSK3A per assay name; protocol says GSK3B) | 1.26
C=CCC(OC(C)=O)[C@@H]1[C@@H](N(Cc2ccc(-c3cccc(C(F)(F)F)c3)o2)C(=O)c2ccc(-c3ccccc3)cc2)c2cc(OCCCO)ccc2N1C(=O)c1ccc2ccccc2c1 (some centres not stated) | glycogen synthase kinase-3 (GSK3A per assay name; protocol says GSK3B) | 0.099

* * *

Method: probe aXIP binding to arrayed compounds – biochemical, NeuroSMM set, 635/667 nm fluorescence, primary screen (AID 1119);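 also: probe is the protein aXip251-270 applied at 1 µg/mL to compound-printed slides; binding of probe to printed compounds measured as 667 nm fluorescence plus signal to noise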
Measurement Parameters: small-molecule microarray, higher = more signal, called active from +8 up or from −8 down
Binned composite Z-score; ranges: lower level = under -0.07, middle level = from -0.07 up to 0.5, upper level = 0.5 and over

Compound | Label Value
CC(C)C[C@@H]1NC(=O)[C@@]23C(=O)N[C@@H](Cc4ccccc4)C2[C@H](C)[C@@]2(C)O[C@H]2C3/C=C/C/C=C\CNC(=O)CNC1=O (some centres undefined) | lower level
O=C(NCc1ccccc1)[C@@H]1c2ccccc2C(=O)N(Cc2cc(C(F)(F)F)cc(C(F)(F)F)c2)[C@H]1c1ccc(CO)cc1 | lower level
C=CCNC(=O)[C@H]1[C@@H]2C(=O)O[C@@H](c3ccccc3)[C@@H](c3ccccc3)N2[C@@H](c2ccccc2OCCO)[C@]12C(=O)N(C(=O)OCCOC)c1ccc(C#Cc3ccc(OC)cc3)cc12 | middle level
CC(C)[Si](C#CCCc1ccccc1)(O[C@H](c1ccccc1)c1cn(Cc2ccccc2)nn1)C(C)C | upper level
COc1ccc(NN2C(C(O)c3ccc(I)cc3)C=CC3C(=O)N(C4CCCCC4)C(=O)C32)cc1 (centres undefined) | upper level
COCCOC(=O)N1C(=O)[C@@]2(c3cc(C#CCC(C(=O)OC)C(=O)OC)ccc31)[C@H](C(=O)Nc1nc3ccccc3s1)[C@H]1C(=O)O[C@H](c3ccccc3)[C@H](c3ccccc3)N1[C@@H]2c1ccc(OCCO)cc1 | upper level
CC1CC/C=C\[C@H]2OC34C=CCN(Cn5nnc6ccccc65)C(=O)[C@H]3N(CCCCCCO)C(=O)[C@@H]4C2C(=O)O1 (some centres undefined) | middle level
COC(=O)[C@@]1(Cc2ccc(F)cc2)[C@H]2c3cc(C(=O)N4CCCC4)n(CCc4ccccn4)c3C[C@H]2CN1C(=O)c1ccccc1 | middle level
COC(=O)[C@]1(CCC(=O)OC(C)(C)C)N=C(c2ccc(OCCCO)cc2)O[C@@H]1c1ccccc1N=[N+]=[N-] | upper level
CO[C@H]1O[C@H](CO)[C@@H](OC(=O)Nc2ccc3c(c2)OCO3)[C@H](OC(=O)Nc2ccccc2-c2ccccc2)[C@H]1OC(=O)Nc1ccccc1-c1ccccc1 | middle level
Cc1ccc(S[C@]2(C(=O)NCCCN(C)C)CC(=O)N(Cc3ccccc3C(F)(F)F)[C@@H]2c2ccc(CO)cc2I)cc1 | lower level
[N-]=[N+]=Nc1ccccc1C[C@@]1(C(=O)NCC(O)CO)N=C(c2ccc(OCCCO)cc2)O[C@@H]1c1ccccc1 (some centres undefined) | lower level
CC(C)(C)N1CC=CC23O[C@@H]4/C=C\CCCOC(=O)C4[C@H]2C(=O)N(CCCO)[C@@H]3C1=O (some centres undefined) | lower level
COc1cc(C(O)C2C=CC3C(=O)N(c4ccccc4)C(=O)C3N2Nc2ccccc2F)cc(OC)c1OC (centres undefined) | middle level
NC(=O)N1C(=O)C2C(C1=O)C1C=C(CCCO)C2C(c2ccc(CN3CCCC3)cc2)N1Cc1sc2ccccc2c1Cl (centres undefined) | lower level
C=C(CCCC)C(=O)CC[C@H](OC(=O)c1ccccc1-c1ccccc1C(=O)O)c1ccc(OCCO)cc1 | lower level
C=CCNC(=O)[C@H]1[C@@H]2C(=O)O[C@@H](c3ccccc3)[C@@H](c3ccccc3)N2[C@@H](c2ccc(OCCO)cc2)[C@]12C(=O)Nc1ccccc12 | upper level
NC(=O)N1C(=O)C2C(C1=O)C1C=C(CCCO)C2C(C2CC2)N1Cc1sc2ccccc2c1Cl (centres undefined) | middle level
Cc1ccccc1C(O)C1C=CC2C(=O)N(c3ccccc3)C(=O)C2N1Nc1ccccc1 (centres undefined) | upper level
COc1ccc([Si](C)(C)[C@H]2[C@H](CCO)O[C@@]3(C(=O)N(Cc4ccc(NC(=O)[C@H](C)O)cc4)c4ccccc43)[C@@H]2C)cc1 | upper level
COc1ccc([Si](C)(C)[C@H]2[C@H](CC(=O)N3Cc4ccccc4C[C@H]3CO)O[C@@]3(C(=O)N(C)c4c(Br)cc(C)cc43)[C@@H]2C)cc1 | middle level
COC(=O)C(CC#Cc1ccc2c(c1)[C@]1(C(=O)N2)[C@H](c2ccc(OCCO)cc2)N2[C@H](c3ccccc3)[C@H](c3ccccc3)OC(=O)[C@H]2[C@@H]1C(=O)N1CCCCCCC1)C(=O)OC | upper level
C=CCC(OC(C)=O)[C@@H]1[C@@H](N(Cc2cccc3ccccc23)C(=O)Cc2ccc(OC)cc2)c2cc(OCCCO)ccc2N1C(=O)c1ccc2ccccc2c1 (some centres undefined) | middle level

* * *

System Under Test: Fibroblast growth factor 10 (Homo sapiens)
Method: compounds binding fibroblast growth factor 10 – biochemical, small-molecule microarray, 635 nm fluorescence, primary screen (AID 1102)
Measurement Parameters: FGF10 binding, fluorescence 635 nm, higher = more signal
composite z-score values, listed per item

Molecular String | System Under Test | composite z-score
O=C(NC1CC1)[C@@H]1c2ccccc2C(=O)N(Cc2cc(C(F)(F)F)cc(C(F)(F)F)c2)[C@H]1c1ccc(CO)cc1 | Fibroblast growth factor 10 (Homo sapiens) | 0.105
COCCn1c(C(=O)N(C)C)cc2c1C[C@H]1CN(C(=O)c3ccccc3)[C@@](Cc3ccc(OC)cc3)(C(=O)OC)[C@@H]21 | Fibroblast growth factor 10 (Homo sapiens) | 0.26
C=C(COC)C(=O)CC[C@@H](OC(=O)c1ccccc1-c1ccccc1C(=O)O)c1ccc(OCCO)cc1 | Fibroblast growth factor 10 (Homo sapiens) | 0.983

* * *

System: Wnt5a (protein binding on small-molecule microarray)
Method: small molecules binding Wnt5a protein – biophysical, small-molecule microarray, 635/667 nm fluorescence, primary screen (AID 1142);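 also: fluorescence read at 667 nm with signal to noise per printed feature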
Measurement Parameters: 635 nm fluorescence, higher = more signal
Quick rule: composite z-score of at least 0.4 means Condition met, below that means Condition not met.

Molecule | Label Value
CC[C@@H]1C=C(C(=O)O)[C@H](c2ccc(OC)cc2)N1S(=O)(=O)c1ccc(C)cc1 | Condition not met
O=C(NC1CC1)[C@@H]1c2ccccc2C(=O)N(CC23CC4CC(CC(C4)C2)C3)[C@H]1c1ccc(CO)cc1 | Condition met
COc1cc(OC)c(C(O)C2C=CC3C(=O)N(c4ccccc4)C(=O)C3N2Nc2ccc(C(C)C)cc2)cc1Br (stereo not drawn) | Condition not met
CC(=O)OCC1C2CC[C@H]3C(OCc4ccc(F)cc4C(F)(F)F)OC[C@]4(C)[C@H]3C2=C(CN4C(=O)OC(C)(C)C)[C@H](C)C1COC(C)=O (stereo partly drawn) | Condition met
CCCC[C@H]1C[C@@H]1[C@@H]1N(C(C)=O)[C@H](c2cccc(OC)c2)CC12CC2 | Condition not met
CN(C)CCCC[C@@H]1NC(=O)[C@@H]2C[C@H](C(=O)NCCCCCN)[C@H](c3cccc(OCCO)c3)N2C1=O | Condition not met
O=C(O)[C@H](Cc1ccccc1)n1cc(C2(O)CCCCC2)nn1 | Condition not met
C=C(C)[C@@H]1CC=C(C(O)C2C=CC3C(=O)N(c4ccccc4)C(=O)C3N2Nc2ccc([N+](=O)[O-])cc2)CC1 (stereo partly drawn) | Condition not met

The values you see were collected from PubChem BioAssay.
